Assay: yeast display, Sf9 membrane polyspecificity reagent, FACS + sequencing; frameworks hold sequencing errors
property measured: polyreactivity (PSR sort gate)

[[record]]
chain_sequence = "QVQLVESGGGLVQAGGSLRLSCAASGRIFRINAMGWYRQAPGKERELVASITSRAGSTYYADSVKGRFTISRDNAKNTVYLQMTSLKPEDTAVYDCAARSVYTYYRLDYWGQGSQVTVSS"
observed_value = "high polyreactivity"

[[record]]
chain_sequence = "QVQLVESGGGLVQEGGSLRLSCASSGRIFDYYAMGWYRQAPGKESELVAAISSSVGNTYYADSVKGRFTISRDNAKNTVYFQMNRLKQEDTAVYYFADYSYVRSSYEVEYDYWGQGTQVTVSS"
observed_value = "low polyreactivity"

[[record]]
chain_sequence = "QVQLVESGGGLVQAGGSLRLSCAASGRIFNRNAMGWYRQAPGKERELVASISSGGRTNYADSVTGRFTISRDNAKNTDYLQMNSLKPEDTAVYYCAAKSPRILLDYWGQGTQVTVSS"
observed_value = "low polyreactivity"

[[record]]
chain_sequence = "QVQLVESGGGLVQAGGSLRLSCAASGRTFGFYAMGWYRQAPGKERELVATISSSGGSTYYADSVKGRFTISRDNAKNTVYLQMNSLKPEDTAVYYCAADYLDSTYGYVYGWDDYWGQGTQVTVSS"
observed_value = "low polyreactivity"


**Q:** Quick check: polyreactivity (PSR sort gate) of `QVQLVESGGGLVQAGGSLRLSCAASGRIFQWYAMGWNRQAPGKERELVAAISWRGGSTYYADSVKGRFTISRDNAKNTVYLQMNSLKPEDTAVYYCNAVRRASSGYDYWGHGTQVTVSS` ?
**A:** high polyreactivity

###

Assay: yeast display, Sf9 membrane polyspecificity reagent, FACS + sequencing; frameworks hold sequencing errors
property measured: polyreactivity (PSR sort gate)

Sample records with polyreactivity (PSR sort gate):
[[record]]
chain_sequence = "QVQLVESGGGLVQAGGSLRLSCAASGSIFSRYTMGWYRQAPGKERELVARINSSGTSTYYADSVQGRFTIARDNAKNTVYLQMNSLKPEDTAVYYCAAQVDTQYWDFDYWGQGTQVTVSS"
observed_value = "low polyreactivity"

[[record]]
chain_sequence = "QVQLVESGGGLVQAGGSLRLSCAASGTFFIYAMGWYRQAPGKERELVATISSGGSTNYADSVKGRFTISRDNAKNTVYLQMNSLKPEDTAVYYCAAEWLYPHDGGYPRPMDYWGQGTQVTVSS"
observed_value = "low polyreactivity"

[[record]]
chain_sequence = "QVQLVESGGGIVQAGGSLRLSCAASGRTFKVNAMGWYIQAPGKEREFVAAITWNSGSSTYYADSVKGRFTISRDNAKNTVYLQMNSLKPEDTAVYYCAARSAGRYWNYYWGQGTQVTVSS"
observed_value = "high polyreactivity"

[[record]]
chain_sequence = "QFQLVESGGGLVQAGGSLRLSCAASGRIFRRYTMGWYRQAPGKERELVATITWDGVSTYYADSVKGRFTISRDNAKNTVYLQMNSLKPEDTAVYYCNVDVYYYVLSYQYDYWGQGTQVTVSS"
observed_value = "high polyreactivity"


Alright, here's another sequence for you.
**Q:** Quick check: polyreactivity (PSR sort gate) of `QVQLVESGGGLVQAGGSLRLSCAASGSTFRGYAMGWYRQEPGKEREFVASISLSGGSTYYADSVKGRFTISRDNAKYTVYLQMNSLKPEDSAVYYCAARARGYGWRGDYWRQGTQVTVSS` ?
**A:** low polyreactivity

###

Assay: yeast display, Sf9 membrane polyspecificity reagent, FACS + sequencing; frameworks hold sequencing errors
property measured: polyreactivity (PSR sort gate)

Sample records with polyreactivity (PSR sort gate):
[[record]]
chain_sequence = "QVQLVESGGGLVQAGGSLRLSCAASGITFVYYVMGWYRQAPGKERELVAAINAGGGSTYYADSVKGRFTISRDNAKNTVYLQMNSLKPEDTAVYYCNARVRVRLGRNWSSYYYWGQGTQVTVSS"
property_measured = "polyreactivity (PSR sort gate)"
observed_value = "high polyreactivity"

[[record]]
chain_sequence = "QVQLVESGGGLVQAGGSLRLSCAASRSIFYRYAMGWYRQEPGKERELVAAISRSGGTTYYADSVKGRFTISRDNAKNTVYLQMNSQKPEDTAVYYCAARVFHPYSTDPFYYWGQGTQVTVSS"
property_measured = "polyreactivity (PSR sort gate)"
observed_value = "high polyreactivity"

[[record]]
chain_sequence = "QVQLVESGGGLVQAGGSLRLSCAASGFTFVYYVMGWYRQAPGKERELVAAINAGGGSTYYADSVKGRFTISRDNAKNTVYLQMISLKPEDTSVYYCNARVRVRLGRNWSSYYYWGQGTQVTVSS"
property_measured = "polyreactivity (PSR sort gate)"
observed_value = "high polyreactivity"

[[record]]
chain_sequence = "QVQLVESGGGLVQAGGSLRLSSAASGSTFTRYGMGWYRQAPGKERELVAAITTSGSSTYYADSVKGRFTISRDNAKNTVYLQMNSLKPEDTAVYYCAADWSSWGFDYWGQGTQVTVSS"
property_measured = "polyreactivity (PSR sort gate)"
observed_value = "low polyreactivity"


Alright, here's another sequence for you.
**Q:** Quick check: polyreactivity (PSR sort gate) of `QVQLVESGGGLVQAGGSLRLSCAASGSTFDYNAMGWYRQAPGKERELVATISSSVGSTYYADSVKGRFTISRDNAKNTVNLQMNSLKPEDTAVYYCNSDYVAYGPEYDYWGQGTQVTVSS` ?
**A:** low polyreactivity

###

Assay: yeast display, Sf9 membrane polyspecificity reagent, FACS + sequencing; frameworks hold sequencing errors
property measured: polyreactivity (PSR sort gate)

Sample records with polyreactivity (PSR sort gate):
[[record]]
chain_sequence = "QVQLVESGGGLVLAGGSLRLSCAASGSIFNVYAMGWYRQAPGKERELVASITRRRTNYADSVKGRFTISRDNAKNTVYLQMNSLKPEDTAVYYCAATTYVRQYATYDYWGQGTQVTVSS"
observed_value = "high polyreactivity"

[[record]]
chain_sequence = "QVQLEESGRGLVQAGGSLRLSCAASGSTSGIYAMGWYRQAPGKERELVAAITWSGGSTNYADSVKGRFTISRDNAKNTVYLQMNSLKPVDTAVYYCAAEFYSYKYPDFDYWGQGTQVTVSS"
observed_value = "low polyreactivity"

[[record]]
chain_sequence = "QVQLVESGGGLVQAGGSLRLSCAASAMGRYRQAPGKERELVAGITSSGGSTYYADSVKGRFTISRDNAKNTVYLQMNSLKPEDTAVYYCNADNAGYGYWSYPYYYWGQGTQVTVSS"
observed_value = "low polyreactivity"

[[record]]
chain_sequence = "QVQLEESGGGLVQAGGSLRLSCAASGRTFSYYSMGCYRKAPGKERELVAAITSGGRTYYADSVKGRFTISRDNAKNTVYLQINSLKPEDTAVYYCAARWYARSLTRFNYWGQGTQVTVSS"
observed_value = "high polyreactivity"


Alright, here's another sequence for you.
**Q:** Quick check: polyreactivity (PSR sort gate) of `QVQLVESGGGLVQAGGSLRLSCAASGFIFYGNTMGWYRQAPGKERELVAAISWSGGTTYYADSVKGRFTISRDNAKNTVYLQMNSLKPEDTAVYYCNRAAFRYRYDYWGQGTQVTVSS` ?
**A:** high polyreactivity

###

Assay: yeast display, Sf9 membrane polyspecificity reagent, FACS + sequencing; frameworks hold sequencing errors
property measured: polyreactivity (PSR sort gate)

Sample records with polyreactivity (PSR sort gate):
[[record]]
chain_sequence = "QVQLVESGGGLVQAGGSLRLSCAASGRIFRWYPMGWYRQAPGKESELDATISSTGGSTYYADSVKGRFTISRDNAKNTVYIQMNSLKPEVTAVYYCNAVVYGIFLYAWYDYWGQGTQVTVSS"
observed_value = "low polyreactivity"

[[record]]
chain_sequence = "QVQLVESGGGLVQAGGRLRLSCAASGRTFPLYAMGWYRQAPGKERELVAAISSSGGNTYYADSVKGRFTISRDNAKNTVYLQMNSLIPEETAVYYCNADVSTNSDRLQLDYWGQGTQVTVSS"
observed_value = "low polyreactivity"

[[record]]
chain_sequence = "QVQLVESGGGLVQAGGSLRLSCAASGSTFQPYAMGWYRQSPGKEREFVATISGSAGSTYYADSVKGRFKISRDNAKNTVYLQMNSLKPEDTAVYYCNADSGWFGYDYWGQGTQVTVSS"
observed_value = "low polyreactivity"

[[record]]
chain_sequence = "QVQVVESGGGLVKAGGSLRLSCAASGIIFVYYAMGWSRQAPGKERELVAAITSDGGRTYYADSVKGRFTISRDNAKNTVYLQMNSLKPEDTAVYYWAARTLYRGIKGYNYWGQGTQVTVSS"
observed_value = "high polyreactivity"


Alright, here's another sequence for you.
**Q:** Quick check: polyreactivity (PSR sort gate) of `QVQLVESGGGLVQAGGSLRVSCAASGLTFRFYAMGWYRQAPGKERELVAAISTSGGSTYYADSVKGRFTISRDNAMNTVYLQMNSLKPEDTAVYYCAARARYYHSRYDYWGQGTQVTVSS` ?
**A:** high polyreactivity
